# subject-of-test: KIX domain of human CBP (residues 586–672) (human, UniProt Q92793 586-672)
# Sequence (Q92793 586-672): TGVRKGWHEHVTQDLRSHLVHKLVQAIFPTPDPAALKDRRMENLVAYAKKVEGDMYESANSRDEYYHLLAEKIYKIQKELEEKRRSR
# test-name: ITC
reported-endpoint: Kd (nM)

Observe how each entry below is paired with its result.
binder: c-Myb TAD N307A (domain or fragment, human, UniProt P10242 275-327, looked up) PAAAAIQRHYNDEDPEKEKRIKELELLLMSTEAELKGQQVLPTQNHTCSYPGW
unit-abbreviation: nM
Kd: 410
//
binder: c-Myb TAD G311A (domain or fragment, human, UniProt P10242 275-327, looked up) PAAAAIQRHYNDEDPEKEKRIKELELLLMSTENELKAQQVLPTQNHTCSYPGW
unit-abbreviation: nM
Kd: 460
//
binder: c-Myb TAD S304G (domain or fragment, human, UniProt P10242 275-327, looked up) PAAAAIQRHYNDEDPEKEKRIKELELLLMGTENELKGQQVLPTQNHTCSYPGW
unit-abbreviation: nM
Kd: 710

1. human WT c-Myb TAD (residues 275–327) (domain or fragment, UniProt P10242 275-327, looked up) PAAAAIQRHYNDEDPEKEKRIKELELLLMSTENELKGQQVLPTQNHTCSYPGW
2. c-Myb TAD N307P (domain or fragment, human, UniProt P10242 275-327, looked up) PAAAAIQRHYNDEDPEKEKRIKELELLLMSTEPELKGQQVLPTQNHTCSYPGW
3. c-Myb TAD S304P (domain or fragment, human, UniProt P10242 275-327, looked up) PAAAAIQRHYNDEDPEKEKRIKELELLLMPTENELKGQQVLPTQNHTCSYPGW
Rank ascending by Kd. The response must list the labels following the requested ordering. 1, 2, 3
(1: 500 nM, 2: 950 nM, 3: 3450 nM)
